experiment: self-splicing fitness, log relative to wild type (ln ratio); higher = more splicing; Tetrahymena group I intron in knt gene, E. coli kanamycin selection, DiMSum; sequences stand for … in CUCUCU…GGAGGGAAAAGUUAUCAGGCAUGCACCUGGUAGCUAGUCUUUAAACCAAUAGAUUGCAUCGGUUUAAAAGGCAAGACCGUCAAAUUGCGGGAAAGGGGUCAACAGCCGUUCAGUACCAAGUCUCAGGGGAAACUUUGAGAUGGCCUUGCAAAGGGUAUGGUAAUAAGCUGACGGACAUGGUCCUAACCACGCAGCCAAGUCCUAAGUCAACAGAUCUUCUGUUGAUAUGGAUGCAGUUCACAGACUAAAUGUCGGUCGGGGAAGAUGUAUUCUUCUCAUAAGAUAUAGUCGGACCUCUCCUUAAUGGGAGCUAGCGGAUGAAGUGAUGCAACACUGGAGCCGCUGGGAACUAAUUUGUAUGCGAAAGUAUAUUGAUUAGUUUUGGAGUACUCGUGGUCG; conditions: 37 °C;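 note: selection with 25 µg/mL kanamycin versus none on LB agar overnight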
Classification field: enter condition met for self-splicing fitness (ln) values not below -2, condition not met for values below it.

residue codes	group
ACCCAGCAAUAUUACGCCCC	condition met
UGUAAGCAAUAUUACGCAUG	condition met
AUCAAGCAAUAUUACGUCGG	condition met
GAGCAGCAAUAUUACGGCUA	condition met
AUUAAGCAAUAUUACGAGAG	condition met
GAUGAGCAAUAUUACGUGAU	condition not met
ACGAAGCAAUAUUACGCCUU	condition met
GGCUAGCAAUAUUACGAUCG	condition met
CGCGAGCAAUAUUACGCGUG	condition not met
AAACAGCAAUAUUACGUCUG	condition met

Entry GGCUAGCAAUAUUACGGAUG : is its self-splicing fitness (ln) no less than -2?
condition met

Please give the result for CCUUAGCAAUAUUACGCUAU too.
condition not met

###

experiment: self-splicing fitness, log relative to wild type (ln ratio); higher = more splicing; Tetrahymena group I intron in knt gene, E. coli kanamycin selection, DiMSum; sequences stand for … in CUCUCU…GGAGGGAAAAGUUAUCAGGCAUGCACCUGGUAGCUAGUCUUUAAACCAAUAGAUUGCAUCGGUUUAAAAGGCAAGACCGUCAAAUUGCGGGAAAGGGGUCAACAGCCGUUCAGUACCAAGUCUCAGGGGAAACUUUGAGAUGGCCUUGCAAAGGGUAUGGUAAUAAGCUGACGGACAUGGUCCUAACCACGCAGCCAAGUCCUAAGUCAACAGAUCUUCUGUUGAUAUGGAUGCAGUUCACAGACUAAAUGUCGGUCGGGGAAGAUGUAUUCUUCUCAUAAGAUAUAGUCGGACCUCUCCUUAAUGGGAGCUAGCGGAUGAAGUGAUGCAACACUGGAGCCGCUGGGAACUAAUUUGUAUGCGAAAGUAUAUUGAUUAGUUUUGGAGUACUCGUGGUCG; conditions: 30 °C
Classification field: enter criterion met for self-splicing fitness (ln) values not below -2, criterion not met for values below it.

residue codes	group
CGUCAGCAAUAUUACGGGCG	criterion not met
GUAUAGCAAUAUUACGGUAU	criterion not met
GGUAAGCAAUAUUACGAGUA	criterion not met
GGAGAGCAAUAUUACGAAAC	criterion not met
UGCCAGCAAUAUUACGGAGG	criterion not met
AUGCAGCAAUAUUACGCGAC	criterion not met
AGACAGCAAUAUUACGUAGU	criterion not met
GUACAGCAAUAUUACGCUGU	criterion not met

As a next step, examine the sequence that follows.
Entry AUAAAGCAAUAUUACGCCAG : is its self-splicing fitness (ln) no less than -2?
criterion met

###

test: self-splicing fitness, log relative to wild type (ln ratio); higher = more splicing; Tetrahymena group I intron in knt gene, E. coli kanamycin selection, DiMSum; sequences stand for … in CUCUCU…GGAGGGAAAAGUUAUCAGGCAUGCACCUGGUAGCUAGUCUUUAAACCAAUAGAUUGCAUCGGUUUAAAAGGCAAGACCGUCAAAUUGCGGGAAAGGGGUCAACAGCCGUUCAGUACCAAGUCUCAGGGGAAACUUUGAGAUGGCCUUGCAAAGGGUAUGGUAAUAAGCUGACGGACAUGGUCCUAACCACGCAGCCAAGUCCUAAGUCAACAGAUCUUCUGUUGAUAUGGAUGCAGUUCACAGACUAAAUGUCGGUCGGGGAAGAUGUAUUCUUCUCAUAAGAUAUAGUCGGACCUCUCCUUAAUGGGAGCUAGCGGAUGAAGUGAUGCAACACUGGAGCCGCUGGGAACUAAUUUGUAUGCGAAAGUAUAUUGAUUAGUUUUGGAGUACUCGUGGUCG; conditions: 37 °C
experimental endpoint: self-splicing fitness (ln)

Examples with answers:
residue codes	self-splicing fitness (ln)
UCCGAGCAAUAUUACGUUUC	-2.11
UUCCAGCAAUAUUACGCGAU	-1.32
GCAAAGCAAUAUUACGAUGU	-1.93
AUGGAGCAAUAUUACGGAGA	-1.21
GGUCAGCAAUAUUACGAGAC	-1.29
UCAUAGCAAUAUUACGAUGA	-0.815

Suppose we examine the sequence UCUAAGCAAUAUUACGCAGA ; what self-splicing fitness (ln) value has been reported?
-0.999

Please give the result for UUAUAGCAAUAUUACGAGAA too.
-1.51

Please give the result for AGAGAGCAAUAUUACGUUGA too.
-2.06

Please give the result for UGAGAGCAAUAUUACGAGUG too.
-2.93

Please give the result for AGUGAGCAAUAUUACGGGCG too.
-0.922

Please give the result for UCGUAGCAAUAUUACGAUUG too.
-2.92

Please give the result for CGUUAGCAAUAUUACGGGAA too.
-2.36

Please give the result for GUGUAGCAAUAUUACGGAUC too.
0.406

Please give the result for GCGCAGCAAUAUUACGGUCU too.
0.0551

Please give the result for UAGUAGCAAUAUUACGGUCC too.
-1.53

###

assay: self-splicing fitness, log relative to wild type (ln ratio); higher = more splicing; Tetrahymena group I intron in knt gene, E. coli kanamycin selection, DiMSum; sequences stand for … in CUCUCU…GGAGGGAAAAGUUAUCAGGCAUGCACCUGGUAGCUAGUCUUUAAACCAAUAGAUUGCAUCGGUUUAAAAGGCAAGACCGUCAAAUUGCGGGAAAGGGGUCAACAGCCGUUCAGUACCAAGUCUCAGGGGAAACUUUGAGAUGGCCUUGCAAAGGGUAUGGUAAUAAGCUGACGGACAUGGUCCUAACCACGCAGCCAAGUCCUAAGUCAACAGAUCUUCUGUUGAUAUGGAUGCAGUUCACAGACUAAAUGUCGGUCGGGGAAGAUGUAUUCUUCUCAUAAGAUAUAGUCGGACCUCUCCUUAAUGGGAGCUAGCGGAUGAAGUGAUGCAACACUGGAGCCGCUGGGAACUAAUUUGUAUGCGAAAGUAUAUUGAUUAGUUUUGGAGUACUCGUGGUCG; details: 30 °C
Entry class follows self-splicing fitness (ln): lower range: < -3; middle range: ≥ -3 and < -2; upper range: ≥ -2

The examples below pair each entry with its known result.
residue codes	group
AUUAAGCAAUAUUACGUUAU	upper range
UGUUAGCAAUAUUACGUAUA	upper range
GCGAAGCAAUAUUACGUUGG	lower range
CGUUAGCAAUAUUACGCGAU	middle range
CCAUAGCAAUAUUACGUGAU	middle range
ACUGAGCAAUAUUACGGCAU	upper range
GCCGAGCAAUAUUACGGAAC	upper range
GGAUAGCAAUAUUACGGGGC	lower range
CCUGAGCAAUAUUACGAAAU	lower range
CAACAGCAAUAUUACGCUGA	lower range

Which band does GGUCAGCAAUAUUACGGGAC fall in?
upper range

Please give the result for UCGUAGCAAUAUUACGGUAG too.
lower range

Please give the result for UGCUAGCAAUAUUACGGGCU too.
middle range

Please give the result for AUGGAGCAAUAUUACGGAAG too.
lower range

Please give the result for AAAGAGCAAUAUUACGUCCG too.
lower range

Please give the result for AAUCAGCAAUAUUACGCUAG too.
upper range

###

assay: self-splicing fitness, log relative to wild type (ln ratio); higher = more splicing; Tetrahymena group I intron in knt gene, E. coli kanamycin selection, DiMSum; sequences stand for … in CUCUCU…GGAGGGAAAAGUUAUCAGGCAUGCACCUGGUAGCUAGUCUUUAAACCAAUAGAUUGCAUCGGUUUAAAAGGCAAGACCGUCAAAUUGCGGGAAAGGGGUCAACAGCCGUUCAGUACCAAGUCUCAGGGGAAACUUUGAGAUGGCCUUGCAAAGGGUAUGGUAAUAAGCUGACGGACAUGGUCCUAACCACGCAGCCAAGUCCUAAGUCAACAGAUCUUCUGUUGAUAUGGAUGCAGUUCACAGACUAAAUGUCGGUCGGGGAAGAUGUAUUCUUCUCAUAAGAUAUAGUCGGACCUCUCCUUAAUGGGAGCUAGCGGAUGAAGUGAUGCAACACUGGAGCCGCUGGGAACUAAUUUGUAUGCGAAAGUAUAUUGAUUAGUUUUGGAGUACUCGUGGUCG; conditions: 37 °C
experimental endpoint: self-splicing fitness (ln)
Could you respond with only the numeric value?

residue codes	self-splicing fitness (ln)
CUGUAGCAAUAUUACGAUAG	-1.17
AUUAAGCAAUAUUACGACAU	0.193
GUGGAGCAAUAUUACGAAGG	-2
AAUGAGCAAUAUUACGAUCA	-2.46
AUCUAGCAAUAUUACGGAGC	-1.32
GAGCAGCAAUAUUACGACCC	-0.0685

Suppose we examine the sequence CGUGAGCAAUAUUACGGCUC ; what self-splicing fitness (ln) value has been reported?
-1.23

Please give the result for GUAGAGCAAUAUUACGCAAG too.
-1.49

// provenance: the supplement of paper PMC7877785
